- target-desc: HDAC 8 (Homo sapiens)
- Sequence (Q9BY41 whole entry): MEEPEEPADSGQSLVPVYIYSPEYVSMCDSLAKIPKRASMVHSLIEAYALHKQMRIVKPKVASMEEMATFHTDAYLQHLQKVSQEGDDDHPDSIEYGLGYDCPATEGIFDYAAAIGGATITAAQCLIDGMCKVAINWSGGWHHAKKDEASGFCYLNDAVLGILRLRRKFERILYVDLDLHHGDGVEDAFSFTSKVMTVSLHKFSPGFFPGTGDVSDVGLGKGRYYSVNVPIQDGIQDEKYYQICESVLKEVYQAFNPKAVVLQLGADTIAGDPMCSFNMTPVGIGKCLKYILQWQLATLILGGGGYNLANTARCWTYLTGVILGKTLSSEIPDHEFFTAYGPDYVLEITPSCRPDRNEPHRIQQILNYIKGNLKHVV
- condition-details: 200 ug/ml
Assign HDAC 8 activity, % of water-treated controls to each entry below.
A complete answer gives the number and then names the unit.

Reported HDAC 8 activity, % of water-treated controls of CCCC(=O)NCCCCC(NC(=O)CCC)C(=O)[O-].CCCC(=O)NCCCCC(NC(=O)CCC)C(=O)[O-].[Ca+2] (stereo not shown) [Ca di-(di-n-butyryl lysinate), calcium di-(di-n-butyryl lysinate)] : 111%

Reported HDAC 8 activity, % of water-treated controls of CCCC(=O)N[C@@H](CC(C)C)C(=O)[O-].CCCC(=O)N[C@@H](CC(C)C)C(=O)[O-].[Zn+2] [Zn di-(n-butyryl leucinate), Zinc di-(n-butyryl leucinate)] : 14%

Reported HDAC 8 activity, % of water-treated controls of CCCC(=O)NCCCC[C@H](NC(=O)CCC)C(=O)[O-].CCCC(=O)NCCCC[C@H](NC(=O)CCC)C(=O)[O-].[Zn+2] [Zn di-(di-n-butyryl lysinate), Zinc di-(di-n-butyryl lysinate)] : 17%

Reported HDAC 8 activity, % of water-treated controls of CCCC(=O)[O-].[Na+] [Sodium butyrate, reference compound] : 20%
